# TARGET_DESC: Yer064c (UniProt P40041)
# Sequence: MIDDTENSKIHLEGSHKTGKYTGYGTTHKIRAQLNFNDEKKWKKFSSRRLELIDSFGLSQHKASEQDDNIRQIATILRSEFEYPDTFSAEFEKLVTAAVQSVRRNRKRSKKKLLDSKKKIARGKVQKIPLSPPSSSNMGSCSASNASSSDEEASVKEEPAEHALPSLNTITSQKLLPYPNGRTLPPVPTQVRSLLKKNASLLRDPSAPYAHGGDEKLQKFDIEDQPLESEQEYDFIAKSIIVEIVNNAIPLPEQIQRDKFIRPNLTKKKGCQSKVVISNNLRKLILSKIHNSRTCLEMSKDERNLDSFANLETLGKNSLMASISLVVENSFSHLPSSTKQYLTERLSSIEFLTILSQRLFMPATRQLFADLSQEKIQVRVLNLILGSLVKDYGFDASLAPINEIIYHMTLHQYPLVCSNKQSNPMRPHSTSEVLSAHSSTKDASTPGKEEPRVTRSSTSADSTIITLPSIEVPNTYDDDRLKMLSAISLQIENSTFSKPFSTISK
# METHOD_SUMMARY: PBM E-score (8-mer binding enrichment) (E-score (-0.5 to 0.5)); higher = stronger / more preferred TF binding
# CONDITIONS: protein concentration: 200 nM; construct: GST-full length
Over roughly 33,000 sequences, “E-score (-0.5 to 0.5)” has its median near -0.036; the highest 2% begin near 0.37. The full list was thinned out, with the highest values kept by preference.
RECORDED_METRIC: PBM E-score
Response field accepts a number only; no unit should be typed.

[[record]]
residues = "CATAGTCA"
target_desc = "Yer064c (UniProt P40041)"
number = 0.466

[[record]]
residues = "GGAATCAC"
target_desc = "Yer064c (UniProt P40041)"
number = 0.418

[[record]]
residues = "CATAGTCC"
target_desc = "Yer064c (UniProt P40041)"
number = 0.304

[[record]]
residues = "ATTAGTCC"
target_desc = "Yer064c (UniProt P40041)"
number = 0.373

[[record]]
residues = "ATGCCGAG"
target_desc = "Yer064c (UniProt P40041)"
number = -0.0321


### Prompt Report PBM E-score for "CCACGTAA"
### Response -0.177

### Prompt Report PBM E-score for "CCCCAGGC"
### Response -0.41

### Prompt Report PBM E-score for "AGCGTCCG"
### Response -0.131

### Prompt Report PBM E-score for "CGGGTGCC"
### Response -0.315

### Prompt Report PBM E-score for "CCGTACGA"
### Response -0.0292

### Prompt Report PBM E-score for "TATAGTCA"
### Response 0.467

### Prompt Report PBM E-score for "ATTAGTCA"
### Response 0.484

### Prompt Report PBM E-score for "ACAATCAA"
### Response 0.202

### Prompt Report PBM E-score for "ATTAGTTA"
### Response 0.153

### Prompt Report PBM E-score for "TATAGTAA"
### Response 0.0693

### Prompt Report PBM E-score for "GGAGACAA"
### Response -0.173

### Prompt Report PBM E-score for "GGAGACTA"
### Response 0.375
